tested on: MCF7; assay: Cytotoxicity against human MCF7 cells assessed as reduction in cell viability after 72 hrs by MTT assay; format: functional; conditions: MCF7, 72 h
measurementName: GI50 (µM)
Give the value, in units of µM, as a plain number.

As a guide, the following entries are already answered.
C[C@@H]1CC[C@]2(C(=O)O)CC[C@]3(C)C(=CC[C@@H]4[C@@]5(C)C[C@@H](O)[C@@H](O)C(C)(C)[C@@H]5CC[C@]43C)[C@@H]2[C@]1(C)O [EUSCAPHIC ACID] :: 41
CC1(C)CC[C@]2(C(=O)O)CC[C@]3(C)C(=CC[C@@H]4[C@@]5(C)C[C@H](O)[C@H](O)[C@@](C)(COC(C)(C)O)[C@@H]5CC[C@]43C)[C@@H]2C1 :: 11
C=C1C(=O)O[C@H]2C3=CC[C@@H]4[C@](C)(CO)CCC[C@@]4(C)[C@@H]3CC[C@@H]12 :: 40
CC(C)c1cc2c(cc1O)[C@]1(C)CCC[C@](C)(C(=O)O)[C@H]1CC2 :: 60
CC(C)c1cc2c(cc1O)[C@@]1(C)CCC[C@](C)(CO)[C@@H]1CC2 :: 92

Challenge: Requested read-out: GI50. Entry: CC(=O)O[C@H]1CC[C@]2(C)[C@H]3CC=C4[C@@H]5[C@@H](C)[C@H](C)CC[C@]5(C(=O)O)CC[C@@]4(C)[C@]3(C)CC[C@H]2C1(C)C [O-ACETYLURSOLIC ACID]
Response given: 6.5

Challenge: Requested read-out: GI50. Entry: `C=C1C(=O)O[C@H]2C3=CC[C@@H]4C(C)(C)[C@H](O)CC[C@@]4(C)[C@@H]3CC[C@@H]12`
Response given: 53

Challenge: Requested read-out: GI50. Entry: `CC(C)c1ccc(O)c2c1CC[C@H]1[C@@](C)(C(=O)O)CCC[C@]21C`
Response given: 60

* * *

Listing of entries alongside the reported GI50.
system: MCF7; assay: Cytotoxicity against human MCF7 cells assessed as reduction in cell viability after 72 hrs by MTT assay; type: functional; conditions: MCF7, 72 h

C[C@@H]1CC[C@]2(C(=O)O)CC[C@]3(C)C(=CC[C@@H]4[C@@]5(C)C[C@@H](O)OCC(C)(C)[C@@H]5CC[C@]43C)[C@@H]2[C@]1(C)O :: > 100 µM
CC(C)c1ccc2c(c1O)CC[C@@H]1[C@@](C)(CO)CCC[C@@]21C :: > 100 µM

Now, please, on to the next compound.
Challenge: Test system MCF7; read-out GI50; what value for `CC(=O)O[C@H]1CC[C@]2(C)[C@H]3CC=C4[C@H]5[C@](C(=O)O)(CC[C@@H](C)[C@@]5(C)O)CC[C@@]4(C)[C@]3(C)CC[C@H]2C1(C)C` ?
Response given: > 100 µM
